Source: the supplement of paper PMC7877785

Assay: self-splicing fitness, log relative to wild type (ln ratio); higher = more splicing; Tetrahymena group I intron in knt gene, E. coli kanamycin selection, DiMSum; sequences stand for … in CUCUCU…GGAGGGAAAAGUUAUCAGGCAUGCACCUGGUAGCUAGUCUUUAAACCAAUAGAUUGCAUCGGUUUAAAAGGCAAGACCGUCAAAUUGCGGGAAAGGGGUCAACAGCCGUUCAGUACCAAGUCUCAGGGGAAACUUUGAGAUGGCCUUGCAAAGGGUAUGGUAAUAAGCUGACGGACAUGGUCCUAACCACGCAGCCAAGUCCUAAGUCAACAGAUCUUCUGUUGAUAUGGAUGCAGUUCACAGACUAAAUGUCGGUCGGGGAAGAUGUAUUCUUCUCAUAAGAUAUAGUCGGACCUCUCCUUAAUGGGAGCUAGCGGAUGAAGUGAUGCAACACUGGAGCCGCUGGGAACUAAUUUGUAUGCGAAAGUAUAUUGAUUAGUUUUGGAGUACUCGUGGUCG;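 also: selection with 25 µg/mL kanamycin versus none on LB agar overnight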
Settings: 30 °C
We use -2 as the dividing line for self-splicing fitness (ln): on or above the line is rule met, below is rule not met.

CUCUAGCAAUAUUACGGGUG :: rule met
GGCAAGCAAUAUUACGCACC :: rule not met
UCAUAGCAAUAUUACGUCUC :: rule met
CUGAAGCAAUAUUACGGCCA :: rule not met
UAGGAGCAAUAUUACGGGCG :: rule not met
GGAGAGCAAUAUUACGGUGA :: rule not met
CAGAAGCAAUAUUACGACGG :: rule met
UCACAGCAAUAUUACGGCGC :: rule not met

Here is the next item to consider.
Challenge: Assess whether reported self-splicing fitness (ln) for `CACUAGCAAUAUUACGUACA` sits at -2 or higher.
Response given: rule not met

====

Assay: self-splicing fitness, log relative to wild type (ln ratio); higher = more splicing; Tetrahymena group I intron in knt gene, E. coli kanamycin selection, DiMSum; sequences stand for … in CUCUCU…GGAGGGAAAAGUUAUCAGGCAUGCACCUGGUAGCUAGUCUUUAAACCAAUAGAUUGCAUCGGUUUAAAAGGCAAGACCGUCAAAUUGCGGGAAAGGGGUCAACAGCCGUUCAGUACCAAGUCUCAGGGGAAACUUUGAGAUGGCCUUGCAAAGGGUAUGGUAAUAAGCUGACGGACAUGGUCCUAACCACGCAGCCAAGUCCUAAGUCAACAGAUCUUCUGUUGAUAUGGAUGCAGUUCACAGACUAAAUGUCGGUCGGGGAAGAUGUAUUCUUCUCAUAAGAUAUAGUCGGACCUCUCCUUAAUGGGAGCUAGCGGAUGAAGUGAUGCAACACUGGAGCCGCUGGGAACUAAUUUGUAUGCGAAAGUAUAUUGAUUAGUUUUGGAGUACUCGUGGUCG
Settings: 37 °C
We use -1 as the dividing line for self-splicing fitness (ln): on or above the line is 1 (yes), below is 0 (no).

UGGGAGCAAUAUUACGUCUG :: 1 (yes)
CUCAAGCAAUAUUACGUCUA :: 0 (no)
AUACAGCAAUAUUACGGACA :: 1 (yes)
ACGUAGCAAUAUUACGCAUA :: 0 (no)
CGCGAGCAAUAUUACGACAU :: 0 (no)

Challenge: Assess whether reported self-splicing fitness (ln) for `GUUAAGCAAUAUUACGACCC` sits at -1 or higher.
Response given: 1 (yes)

Challenge: And for `GGAGAGCAAUAUUACGUUAU` ?
Response given: 0 (no)

Challenge: And for `CGUGAGCAAUAUUACGGGUC` ?
Response given: 0 (no)

Challenge: And for `UAAUAGCAAUAUUACGUUUC` ?
Response given: 0 (no)

Challenge: And for `ACUUAGCAAUAUUACGUACA` ?
Response given: 1 (yes)

Challenge: And for `CGUCAGCAAUAUUACGCGGG` ?
Response given: 0 (no)

Challenge: And for `AUCUAGCAAUAUUACGGUGC` ?
Response given: 0 (no)

Challenge: And for `GUUUAGCAAUAUUACGGUUA` ?
Response given: 1 (yes)

Challenge: And for `GCUGAGCAAUAUUACGUAGG` ?
Response given: 0 (no)

Challenge: And for `UGAAAGCAAUAUUACGCGUC` ?
Response given: 0 (no)

Challenge: And for `UCAAAGCAAUAUUACGGUAG` ?
Response given: 0 (no)

====

Test: self-splicing fitness, log relative to wild type (ln ratio); higher = more splicing; Tetrahymena group I intron in knt gene, E. coli kanamycin selection, DiMSum; sequences stand for … in CUCUCU…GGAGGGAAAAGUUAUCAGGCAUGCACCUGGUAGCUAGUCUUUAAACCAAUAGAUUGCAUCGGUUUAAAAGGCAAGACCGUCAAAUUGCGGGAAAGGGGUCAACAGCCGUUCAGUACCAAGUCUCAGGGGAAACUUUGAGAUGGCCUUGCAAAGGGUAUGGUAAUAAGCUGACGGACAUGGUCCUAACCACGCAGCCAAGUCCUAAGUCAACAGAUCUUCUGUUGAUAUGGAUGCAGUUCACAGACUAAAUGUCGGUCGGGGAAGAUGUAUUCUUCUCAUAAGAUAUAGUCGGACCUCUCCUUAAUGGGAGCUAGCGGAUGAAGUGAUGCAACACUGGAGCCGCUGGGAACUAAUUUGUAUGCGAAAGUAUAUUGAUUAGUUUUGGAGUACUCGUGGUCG
Conditions: 30 °C
RESULT TYPE: self-splicing fitness (ln)
Lab note: record just the number, no unit beside it.

Known self-splicing fitness (ln) results, listed for orientation:
GUUUAGCAAUAUUACGACCA :: -1.56
ACAGAGCAAUAUUACGGUCG :: -2.29
GACCAGCAAUAUUACGGAGC :: -0.563
UACAAGCAAUAUUACGGAGG :: -3.94
ACACAGCAAUAUUACGAACC :: -2.57
GAACAGCAAUAUUACGCUCA :: -1.23
GGUCAGCAAUAUUACGGCCG :: -1.83
CACAAGCAAUAUUACGUAGC :: -4

Challenge: For the sequence `UGCCAGCAAUAUUACGCUUA` , what self-splicing fitness (ln) is on record?
Response given: -0.602

Challenge: And for `CUAGAGCAAUAUUACGGGUC` ?
Response given: -4.31

Challenge: And for `CUAAAGCAAUAUUACGUAAG` ?
Response given: -0.149

Challenge: And for `CAUUAGCAAUAUUACGUUCU` ?
Response given: -2.56

Challenge: And for `ACACAGCAAUAUUACGCCCU` ?
Response given: -0.215

Challenge: And for `AUACAGCAAUAUUACGCUCA` ?
Response given: -0.776

Challenge: And for `UAUUAGCAAUAUUACGCGCA` ?
Response given: -0.12

====

Experiment: self-splicing fitness, log relative to wild type (ln ratio); higher = more splicing; Tetrahymena group I intron in knt gene, E. coli kanamycin selection, DiMSum; sequences stand for … in CUCUCU…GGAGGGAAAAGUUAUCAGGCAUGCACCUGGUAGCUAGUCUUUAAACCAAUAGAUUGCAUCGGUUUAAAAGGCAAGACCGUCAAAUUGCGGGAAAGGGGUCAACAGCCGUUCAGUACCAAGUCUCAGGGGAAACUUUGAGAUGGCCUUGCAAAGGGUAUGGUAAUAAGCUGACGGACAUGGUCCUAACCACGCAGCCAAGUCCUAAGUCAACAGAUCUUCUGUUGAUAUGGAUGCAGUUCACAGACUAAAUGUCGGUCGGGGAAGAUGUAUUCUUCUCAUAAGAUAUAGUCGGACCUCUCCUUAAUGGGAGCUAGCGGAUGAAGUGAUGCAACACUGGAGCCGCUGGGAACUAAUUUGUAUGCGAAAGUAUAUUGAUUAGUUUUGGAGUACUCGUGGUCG
Settings: 37 °C
Item-by-item account of self-splicing fitness (ln)
Lab note: record just the number, no unit beside it.

Known self-splicing fitness (ln) results, listed for orientation:
UCCAAGCAAUAUUACGCAUG :: -2.27
GUUAAGCAAUAUUACGGAAU :: -1.39
AAGAAGCAAUAUUACGAGGA :: -2.98

Please turn your attention to the following entry.
Challenge: For the sequence `CGAAAGCAAUAUUACGACUA` , what self-splicing fitness (ln) is on record?
Response given: -0.539

====

Assay: self-splicing fitness, log relative to wild type (ln ratio); higher = more splicing; Tetrahymena group I intron in knt gene, E. coli kanamycin selection, DiMSum; sequences stand for … in CUCUCU…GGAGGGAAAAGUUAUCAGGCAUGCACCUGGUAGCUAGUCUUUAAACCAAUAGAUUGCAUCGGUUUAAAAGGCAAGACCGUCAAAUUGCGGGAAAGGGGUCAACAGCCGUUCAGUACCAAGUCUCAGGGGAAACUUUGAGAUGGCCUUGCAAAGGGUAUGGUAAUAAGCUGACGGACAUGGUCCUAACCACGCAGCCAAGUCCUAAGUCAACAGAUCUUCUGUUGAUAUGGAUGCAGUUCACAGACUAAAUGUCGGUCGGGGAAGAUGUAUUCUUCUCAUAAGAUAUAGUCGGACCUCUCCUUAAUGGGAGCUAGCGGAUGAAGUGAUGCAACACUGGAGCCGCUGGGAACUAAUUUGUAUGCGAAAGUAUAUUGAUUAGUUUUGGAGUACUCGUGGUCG
Settings: 37 °C
Item-by-item account of self-splicing fitness (ln)

UUUAAGCAAUAUUACGACCU :: -1.3

Challenge: For the sequence `AGACAGCAAUAUUACGGCUU` , what self-splicing fitness (ln) is on record?
Response given: 0.564

Challenge: And for `AAUGAGCAAUAUUACGGAGC` ?
Response given: -1.03

Challenge: And for `CAGCAGCAAUAUUACGGGUG` ?
Response given: -0.904

Challenge: And for `CUAUAGCAAUAUUACGAGGA` ?
Response given: -1.73

Challenge: And for `GACUAGCAAUAUUACGGCGC` ?
Response given: -0.0936

Challenge: And for `UUUAAGCAAUAUUACGCUCC` ?
Response given: -0.172

Challenge: And for `CUAAAGCAAUAUUACGAGAA` ?
Response given: -3.25

Challenge: And for `UGGCAGCAAUAUUACGGGGA` ?
Response given: -2.03

Challenge: And for `UGAUAGCAAUAUUACGUUGC` ?
Response given: -2.32

Challenge: And for `ACUAAGCAAUAUUACGUCUC` ?
Response given: -0.208

Challenge: And for `GCUAAGCAAUAUUACGCAUG` ?
Response given: -2.09

Challenge: And for `CCCUAGCAAUAUUACGAAUA` ?
Response given: -1.79

Challenge: And for `CCCUAGCAAUAUUACGCCUC` ?
Response given: -3.81

Challenge: And for `CUGGAGCAAUAUUACGGUAU` ?
Response given: -2.49

Challenge: And for `UGACAGCAAUAUUACGAGUG` ?
Response given: -0.833

Challenge: And for `CUAAAGCAAUAUUACGCUGG` ?
Response given: -2.11
